run_description: Solubility screening of Formula (I) in crystallization solvents at RT and 50° C. (TABLE 3)
Format: physicochemical
test_settings: methyl tert-butyl ether (MTBE), 50 °C, organic solvent or mixture, thermodynamic from solid, MTBE; 50° C.; read-out: Solubility Range
assay_readout: solubility

For this molecule ( CC[C@H](C)C(=O)N1CCC(NC(=O)Nc2ccc(OC(F)(F)F)c(F)c2)CC1 [Formula (I)] ), measured solubility is 5680 to 11400 µg/mL

---

run_description: Solubility of Form C in binary solvent systems (TABLE 22)
Assay type: physicochemical
test_settings: IPA/n-heptane, ratio of n-heptane to primary 21.3, organic solvent or mixture
assay_readout: solubility (µg/mL)
Please reply with the bare figure in µg/mL and do not write the unit itself.

Entry CC[C@H](C)C(=O)N1CCC(NC(=O)Nc2ccc(OC(F)(F)F)c(F)c2)CC1 [Form C] , solubility reported as 5000
